// provenance: PubChem BioAssay (NCI)

Test system: BT-549 breast
measurement_description: NCI-60 one-dose screen, 48 h (100 = growth as untreated, 0 = no growth, -100 = all killed)
settings: 10 µM unless noted
The panel holds about 83,000 compounds, 20% with a hit somewhere; the sample as a whole holds those more often.
Please respond with reported growth for every item in the list.
Numbers only, in %.

Worked set:
COc1cc(C(=O)/C=C/c2c(-c3cccs3)nc3sc(C)cn23)cc(OC)c1OC; -0.944
CCN(CC)CCOc1ccc(/C(=C(\C)Cc2ccc(OC)cc2)c2ccc(O)cc2)cc1; 56.7
CCOc1cc(\C=N/N=C(N)/C(N)=N\N=C/c2ccc(O)c(OCC)c2)ccc1O; 93.1
CN1C(=O)N(C)C2C1NN=c1s/c(=C\c3ccccc3F)c(=O)n12 (stereo not given); 18.9

Below: the item to evaluate.
query: For "Cn1cc(-c2csc(-c3cn(C)c4ccc(F)cc34)n2)c2cnccc21" , what is its reported growth?
result: 84

====

Tested on: NCI-H522 lung
measurement_description: NCI-60 one-dose screen, 48 h
settings: 10 µM unless noted
About 83,000 compounds went through this panel and 20% of them were active in at least one assay; those are over-represented in the sample as a whole. The source made the active and inactive calls. Rule for the calls: active = growth percent below 10; inactive = the rest.
I would appreciate it if you answered using one of these outcomes: True = active, False = inactive

These solved cases illustrate the format of a correct answer.
C=C(C)Cn1c(SCC(=O)c2cccs2)nc2sc3c(c2c1=O)CCCC3; False
O=C(O)CCCN1C(=O)CSC1=S; False

query: Called result for "COC(=O)c1sc(-c2ccc(C)cc2)cc1O"
result: False

query: Now consider "O=C(Nc1ncc(Cc2ccc(Cl)cc2)s1)c1ccc2c(c1)OCCO2" and answer again.
result: True

query: Now consider CCOC(=O)C1=C(c2ccccc2)N=C2N(c3ccccc3)N=C(C(C)=O)N2C1c1ccc(Br)cc1 (stereo not given) and answer again.
result: False

query: Now consider COc1ccc(C2=NN3C(C2)c2cc(Br)ccc2OC3c2ccncc2)cc1 (stereo not given) and answer again.
result: False

query: Now consider "Cc1cc2c(c(C)n1)CN(C(=O)Nc1nc(-c3cncs3)ccc1N)C2" and answer again.
result: False

query: Now consider O=c1n(C2OC(CO)C(O)C2O)ccc2nccn12 (stereo not given) and answer again.
result: False

query: Now consider CCCn1cnc2c(c1=N)C(c1ccc(Cl)cc1)c1sc3c(F)cccc3c1O2 (stereo not given) and answer again.
result: False

query: Now consider "CC(=O)O[C@H]1CC[C@@]2(C)C(=CC[C@@H]3[C@@H]2CC[C@]2(C)C(Cl)=C(c4nc5ccc(Cl)cn5c4NC(C)(C)C)C[C@@H]32)C1" and answer again.
result: False

query: Now consider "O=C1CCc2c(sc3[nH]c(=S)n(-c4cc(C(F)(F)F)cc(C(F)(F)F)c4)c(=O)c23)C1" and answer again.
result: True

query: Now consider "Clc1ccc2c(NCCCn3cnc4c(N5CCCC5)nc(Cl)nc43)ccnc2c1" and answer again.
result: False

query: Now consider "Clc1ccc(C2=Nn3c(nnc3-c3cc(Cl)cc(Cl)c3Cl)SC2)cc1" and answer again.
result: False

query: Now consider "CC(=O)OCC(=O)O[C@@H]1C[C@]2(C(C)C)O[C@@]1(C)[C@@H]1CC[C@@H](C)[C@H]1[C@@H]2OC(=O)/C=C/c1ccccc1" and answer again.
result: False

query: Now consider CCOC(=O)C1=C(C)N(C)C(=O)N(C)C1c1ccccc1 (stereo not given) and answer again.
result: False

query: Now consider CC(C)=CCC[C@](C)(O)C1CC[C@]2(C)[C@@H]1CC[C@@H]1[C@@]3(C)CC/C(=N\OCCC#N)C(C)(C)[C@@H]3CC[C@]12C (stereo not given in full) and answer again.
result: False

query: Now consider "C#Cc1ccc(NC(=O)Cc2ccc(/C=C/C(=O)c3nccn3C)cc2)cc1" and answer again.
result: False

query: Now consider "O=C1c2c(c3c4cc(F)ccc4oc3c3[nH]c4ccccc4c23)C(=O)N1O" and answer again.
result: False

query: Now consider COc1cccc(C2C(C#N)=C(N)Oc3c2ccc2ccccc32)c1 (stereo not given) and answer again.
result: True

query: Now consider "CCCCCCCCNc1ncnc2c1ncn2Cc1nnc2c3ccccc3c(Cl)nn12" and answer again.
result: False

query: Now consider C#CCOC(=O)C(N)CSSCC(N)C(=O)O (stereo not given) and answer again.
result: False

query: Now consider "COc1ccc(Nc2nc(Nc3cc(C)[nH]n3)c3cc(OC)c(OC)cc3n2)cc1" and answer again.
result: True

query: Now consider "COc1ccc(-c2ccc(-c3ccc(C(=N)N)nc3)s2)cc1" and answer again.
result: True

query: Now consider "COc1cc(/C=C2\C(=O)N(CCOc3cc(O)c4c(=O)cc(-c5ccccc5)oc4c3)c3ccccc32)cc(OC)c1O" and answer again.
result: False

query: Now consider "CC(C)C(=O)Nc1ncc(C(=O)NCCN(Cc2ccccc2)C(=O)c2ccc(S(=O)(=O)Nc3ccccc3)cc2)s1" and answer again.
result: False

query: Now consider C#Cc1c(I)n(C2OC(CO[Si](C)(C)C(C)(C)C)C3OC(C)(C)OC32)c(=O)[nH]c1=O (stereo not given) and answer again.
result: False
